Hello, the source for this data is the METLIN SMRT retention time set (Domingo-Almenara et al. 2019), in case you need it.

In this section we review reported RP-LC retention time values for a set of compounds.
Experiment: gradient 5% acetonitrile 3 min, to 50% in 2 min, to 85% in 15 min, held 3 min, 100 µL/min
Settings: column: Zorbax Extend-C18 2.1 x 50 mm; eluents: water / acetonitrile, 0.1% formic acid
Quick reminder: number only, in s, skip the unit.

// sample `c1ccc(N2CCN(CCCOc3ccc4c(c3)OCO4)CC2)cc1` , its RP-LC retention time was 770

Lab note: measured RP-LC retention time of `CCN(CC)S(=O)(=O)N1CCC(C(=O)NCCc2ccccc2)CC1` was 817

Per the records, this compound ( O=C(Nc1cccnc1)C1CCCN(c2ncnc3c2nc2n3CCCCC2)C1 (stereo not given) ) has RP-LC retention time equal to 603

For reference, reported RP-LC retention time for `O=C1CCN(C(=O)c2cccs2)CCOCCN1` stands at 585

# RP-LC retention time of `CNC(=O)[C@@H]1CN(C(=O)CCc2c(C)noc2C)C[C@H]1c1n[nH]c(C)n1` = 568

Lab note: measured RP-LC retention time of `NCC(=O)c1cccc2ccc[n+]([O-])c12` was 678

`CCSc1nnc(-c2nn(C)c3c2CN(C(=O)c2cc(C)ccc2C)CC3)n1C` has a reported RP-LC retention time of 811

The compound identified as Cc1cc(C)cc(NC(=O)CN2C(=O)C3CCCCN3c3ccc(S(=O)(=O)N(C)C)cc32)c1 (stereo not given) registered its RP-LC retention time at 994

Memo: `O=C(Cn1cc(-c2ccccc2)c2ncnc(N3CCOCC3)c21)N1CCCCC1` , reported RP-LC retention time: 700

GET /value?item= COc1ccc2c(c1)C1(CCN(S(=O)(=O)c3ccc(F)cc3F)C1)C(=O)N2 (stereo not given) &field=RP-LC retention time returns 841

The measured RP-LC retention time associated with CS(=O)(=O)N1CCC(C(=O)Nc2cccc(Br)c2)Oc2ccccc21 (stereo not given) reads 996

Measured RP-LC retention time of Cc1nc(C2CCCN2Cc2ccc(C)s2)n[nH]1 (stereo not given) : 554

Record CCOc1cc(CNC(=O)C2CCCN(C(=O)c3cc(C)cc(C)c3)C2)cc(OCC)c1OCC (stereo not given) , field RP-LC retention time: 968

What the record says about `COc1cccc(-c2csc(Cc3nc(-c4cccs4)no3)n2)c1` : RP-LC retention time is 1020

###

Assay: gradient 5% acetonitrile 3 min, to 50% in 2 min, to 85% in 15 min, held 3 min, 100 µL/min
Conditions: column: Zorbax Extend-C18 2.1 x 50 mm; eluents: water / acetonitrile, 0.1% formic acid
Rule: measured RP-LC retention time below 800 s gets label 1; anything equal to or greater than 800 s gets label 0.

The examples below pair each entry with its known result.
O=C(CSc1nc2ccccc2s1)NCCn1nc(-c2ccco2)ccc1=O
label 1
CCC(C)(C)NS(=O)(=O)c1cccc(-c2nc(-c3ccccc3)no2)c1
label 0
Cc1ccc(S(=O)(=O)N2CC=C(c3cn(C)c4ncccc34)CC2)cc1
label 0
O=C(NCCOc1cccc(C(F)(F)F)c1)c1ccc([N+](=O)[O-])cc1
label 0
O=C(Nc1ccc(OC(F)(F)F)cc1)C1CCN(S(=O)(=O)c2ccc3[nH]c(=O)ccc3c2)CC1
label 0

Is it true that RP-LC retention time reported for `O=C(NCc1nn(Cc2ccccc2)c2ccccc12)c1ccco1` is less than 800 s?
label 0

A record lists `Cc1noc(C)c1CC(=O)N1CCCn2cc(-c3ccccc3F)nc21` . Is its RP-LC retention time below 800 s?
label 1
